testTarget: PBR/TSPO (18-kDa translocator protein) (Mus musculus, UniProt P50637)
Construct: native protein in kidney and testis membranes of Tspo+/+ mice
Sequence (P50637 whole entry): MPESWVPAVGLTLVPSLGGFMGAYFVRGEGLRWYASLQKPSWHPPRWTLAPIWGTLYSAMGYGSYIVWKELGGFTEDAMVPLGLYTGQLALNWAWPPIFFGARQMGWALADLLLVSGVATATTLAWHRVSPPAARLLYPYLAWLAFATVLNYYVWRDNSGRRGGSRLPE
assayInfo: [3H]PK11195 saturation radioligand binding on tissue membranes; autoradiography; no binding in Tspo-/- mice
reportedEndpoint: Kd

# input Name the reported Kd value associated with the compound CCC(C)N(C)C(=O)c1cc2ccccc2c(-c2ccccc2Cl)n1 (stereo not shown)
# output 12.9 nM

meta.source: paper PMC4263137
